- System: Vibrio alginolyticus (A056)
- Format: cell-based
- TEST CONTEXT: 2 h, pH 7.2
Where a SMILES comes first, the peptide text is derived from it.
ENDPOINT LABEL: MIC

>>> meas_value("CC[C@H](C)[C@H](NC(=O)CNC(=O)[C@H](CO)NC(=O)[C@H](CC(C)C)NC(=O)[C@H](CCCNC(=N)N)NC(=O)[C@H](Cc1ccccc1)NC(=O)[C@H](CO)NC(=O)[C@H](C)NC(=O)[C@@H](N)Cc1ccccc1)C(=O)N[C@@H](Cc1c[nH]cn1)C(=O)N[C@H](C(=O)N[C@@H](CO)C(=O)N[C@@H](C)C(=O)N[C@@H](CC(N)=O)C(=O)N[C@H](C(=O)N[C@@H](CCCCN)C(=O)N[C@H](C(=O)N[C@@H](CC(C)C)C(=O)O)C(C)C)C(C)C)[C@@H](C)O [NpHN2] (H-FASFRLSGIHTSANVKVL-OH)")
"100 to 280 µM"
>>> meas_value("CC[C@H](C)[C@H](NC(=O)CNC(=O)[C@H](Cc1c[nH]cn1)NC(=O)[C@H](CC(C)C)NC(=O)[C@H](CC(C)C)NC(=O)[C@H](Cc1ccccc1)NC(=O)CNC(=O)[C@H](C)NC(=O)[C@H](Cc1ccccc1)NC(=O)[C@@H](NC(=O)[C@@H](N)CCCNC(=N)N)[C@@H](C)CC)C(=O)NCC(=O)N[C@@H](CCC(N)=O)C(=O)N[C@@H](CO)C(=O)N[C@@H](C)C(=O)O [NpHN6] (H-RIFAGFLLHGIGQSA-OH)")
"100 to 300 µM"

As a next step, examine the compound that follows.
## Input Consider the compound shown here: CC[C@H](C)[C@H](NC(=O)CNC(=O)[C@H](Cc1c[nH]cn1)NC(=O)[C@H](CCCNC(=N)N)NC(=O)[C@H](CC(C)C)NC(=O)[C@H](Cc1ccccc1)NC(=O)CNC(=O)[C@H](C)NC(=O)[C@H](CCCNC(=N)N)NC(=O)[C@@H](NC(=O)[C@@H](N)CCCNC(=N)N)C(C)C)C(=O)N[C@@H](CCCCN)C(=O)N[C@@H](CCCNC(=N)N)C(=O)N[C@@H](CO)C(=O)N[C@@H](C)C(=O)O [NpHM6] (H-RVRAGFLRHGIKRSA-OH) What is its recorded MIC?
## Output >70 µM

---

- Test system: Vibrio parahaemolyticus 2013V-1174
- Assay type: cell-based
- TEST CONTEXT: 2 h, pH 7.2
Where a SMILES comes first, the peptide text is derived from it.
ENDPOINT LABEL: MIC

Below, each entry is followed by its recorded MIC result.
>>> meas_value("CC[C@H](C)[C@H](NC(=O)CNC(=O)[C@H](Cc1c[nH]cn1)NC(=O)[C@H](CC(C)C)NC(=O)[C@H](CC(C)C)NC(=O)[C@H](Cc1ccccc1)NC(=O)CNC(=O)[C@H](C)NC(=O)[C@H](CCCNC(=N)N)NC(=O)[C@@H](NC(=O)[C@@H](N)CCCNC(=N)N)C(C)C)C(=O)N[C@@H](CCCCN)C(=O)N[C@@H](CCCNC(=N)N)C(=O)N[C@@H](CO)C(=O)N[C@@H](CCCNC(=N)N)C(=O)O [NpHM5] (H-RVRAGFLLHGIKRSR-OH)")
"15 to 70 µM"
>>> meas_value("CC[C@H](C)[C@H](NC(=O)CNC(=O)[C@H](Cc1c[nH]cn1)NC(=O)[C@H](CCCNC(=N)N)NC(=O)[C@H](CC(C)C)NC(=O)[C@H](Cc1ccccc1)NC(=O)CNC(=O)[C@H](C)NC(=O)[C@H](Cc1ccccc1)NC(=O)[C@@H](NC(=O)[C@@H](N)CCCNC(=N)N)C(C)C)C(=O)N[C@@H](CCCCN)C(=O)N[C@@H](CCCNC(=N)N)C(=O)N[C@@H](CO)C(=O)N[C@@H](CCCNC(=N)N)C(=O)O [NpHM4] (H-RVFAGFLRHGIKRSR-OH)")
"15 to 45 µM"
>>> meas_value("CC[C@H](C)[C@H](NC(=O)CNC(=O)[C@H](Cc1c[nH]cn1)NC(=O)[C@H](CCCNC(=N)N)NC(=O)[C@H](CC(C)C)NC(=O)[C@H](Cc1ccccc1)NC(=O)CNC(=O)[C@H](C)NC(=O)[C@H](CCCNC(=N)N)NC(=O)[C@@H](NC(=O)[C@@H](N)CCCNC(=N)N)C(C)C)C(=O)N[C@@H](CCCCN)C(=O)N[C@@H](CCCNC(=N)N)C(=O)N[C@@H](CO)C(=O)N[C@@H](C)C(=O)O [NpHM6] (H-RVRAGFLRHGIKRSA-OH)")
"15 to 60 µM"

In the following, a different molecule is considered.
## Input Which MIC value is on record for CC[C@H](C)[C@H](NC(=O)CNC(=O)[C@H](Cc1c[nH]cn1)NC(=O)[C@H](CC(C)C)NC(=O)[C@H](CC(C)C)NC(=O)[C@H](Cc1ccccc1)NC(=O)CNC(=O)[C@H](C)NC(=O)[C@H](CCCNC(=N)N)NC(=O)[C@@H](NC(=O)[C@@H](N)CCCNC(=N)N)C(C)C)C(=O)N[C@@H](CCCCN)C(=O)N[C@@H](CCCNC(=N)N)C(=O)N[C@@H](CO)C(=O)N[C@@H](C)C(=O)O [NpHM3] (H-RVRAGFLLHGIKRSA-OH) ?
## Output 15 to 60 µM
